// provenance: the supplement of paper PMC12783771

B1: library; numbered along this chain (parent)
chain: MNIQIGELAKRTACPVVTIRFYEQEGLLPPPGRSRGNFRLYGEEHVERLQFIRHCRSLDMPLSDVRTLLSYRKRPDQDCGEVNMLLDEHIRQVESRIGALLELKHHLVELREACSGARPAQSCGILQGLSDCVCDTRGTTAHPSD

Variants of: B1
Experiment: sfGFP reporter fluorescence (15 h) (µM FITC); higher = stronger transcriptional activation
Conditions: library round: Round 0; ligand: 30 µM Zn
Lab note: anything with sfGFP reporter fluorescence at or over 0.1 counts as Met; the rest go in Not met.

As a guide, the following entries are already answered.
MNIQIGELAKRTACPVVTIRFYEQEGLLPPPGRSRGNFKLYGEEHVERLQFIRHCRSLDMPLSDVRTLLSYRKRPDQDCGEVNMLLDEHIRQVESRIGALLELKHHLVELREACSGARPAQSCGILQGLSDCVCDTRGTTAHPSD [R39K]: Met
MNIQIGELAKRTACPVVTIRFYEQEGLLPPPGRSRGNFRLYGEEHVERLQFIRHCRSLDLPLSDVRTLLSYRKRPDQDCGEVNMLLDEHIRQVESRIGALLELKHHLVELREACSGARPAQSCGILQILSDCVCDTRGTTAHPSD [M60L G128I]: Met

Moving on to the next variant.
Does the reported sfGFP reporter fluorescence for MNIQIGELAKRTACPVVTIRFYEQEGLLPPPGRSRGNFRLYGEEHVERLQFIRHCRSLDMPLSDVRTLLSYRKRPDQDCGEVFMLLDEHIRQVESRIGALLELKHHLVELREACSGARPAQSCGILQGLSDCVCDTRGTTAHPSD [N83F] fall at or above the 0.1 mark?
Not met
